assay: chemical genetic growth profiling, strain panel (AID 1159580);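 note: tested at 20 µM; growth read once vehicle control cultures reached saturation at 30 °C; 1 = growth at the plate median or of vehicle wells; lower values mean less growth of the strain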; conditions: S. cerevisiae deletion strains, growth OD, locus YLR342W, strain FKS1, hits give low values
The campaign covered roughly 5,500 compounds. About 2,000 (36%) were called active. Inconclusive results (about 18%) are left out. Some of the results follow.
normalized growth values for the compounds below.
Note: the reply should be a number with no unit written.

Take a look at these entries with their results.
Nc1ccn(C2O[C@H](CO)[C@@H](O)[C@@H]2O)c(=O)n1 (stereo partly drawn); 0.994
CCOC(=O)[C@H](CCc1ccccc1)N[C@@H](C)C(=O)N1[C@H](C(=O)O)C[C@@H]2CCC[C@@H]21; 0.989
CC(C(=O)O)c1ccc(C(=O)c2cccs2)cc1 (stereo not drawn); 1
O=c1[nH]oc2c1CCNC2; 0.975
CC1(C)NC(=O)N(c2ccc([N+](=O)[O-])c(C(F)(F)F)c2)C1=O; 0.983

Input CCNC(=O)CC[C@H](N)C(=O)O . Output normalized growth: 1.02

According to the records, this compound COC(=O)C(O)c1ccccc1 (stereo not drawn) displays normalized growth of 1

For CC(=O)OCC[C@H](C)CCC=C(C)C the compound record lists normalized growth as 0.975

----------
assay: chemical genetic growth profiling, strain panel (AID 1159580);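 note: tested at 20 µM; growth read once vehicle control cultures reached saturation at 30 °C; 1 = growth at the plate median or of vehicle wells; lower values mean less growth of the strain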; conditions: S. cerevisiae deletion strains, growth OD, locus YLR370C, strain arc18, hits give low values
Hit rate of the full screen: of about 5,500 compounds, about 2,000 (36%) were called active. Another 18% or so got no clear call; they are omitted. Some of the results follow.
measure: normalized growth
Lab note: jot down the number only; don't add units.

O=c1cc[nH]c(=S)[nH]1; 0.997
CC1=CC2C(CC1=O)C(C)=CCC2C(C)C (centres undefined); 1.02

Summary for this compound, CO/N=C(\C(=O)N[C@@H]1C(=O)N2C(C(=O)O)=C(CSc3nc(=O)c(O)nn3C)CS[C@H]12)c1csc(N)n1 : normalized growth is 0.971

// recorded normalized growth for CO/N=C(\C(=O)NC1C(=O)N2C(C(=O)O)=C(COC(N)=O)CSC12)c1ccco1 (centres undefined) : 0.963

----------
experiment: chemical genetic growth profiling, strain panel (AID 1159580);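 note: tested at 20 µM; growth read once vehicle control cultures reached saturation at 30 °C; 1 = growth at the plate median or of vehicle wells; lower values mean less growth of the strain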; conditions: S. cerevisiae deletion strains, growth OD, locus YMR223W, strain ubp8, hits give low values
Among all 5,500 compounds or so, about 2,000 (36%) were called active. About 18% were inconclusive and are not listed. The list shows a part of the results.
normalized growth strictly under 1 means 1; at 1 or over means -1.

CO/N=C(\C(=O)N[C@@H]1C(=O)N2C(C(=O)O)=C(CSc3nc(=O)c(O)nn3C)CS[C@H]12)c1csc(N)n1; 1

I wonder whether Clc1cccc(Cl)c1NC1=NCCN1 has normalized growth below 1. Can you tell?
-1

----------
test: chemical genetic growth profiling, strain panel (AID 1159580);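 note: tested at 20 µM; growth read once vehicle control cultures reached saturation at 30 °C; 1 = growth at the plate median or of vehicle wells; lower values mean less growth of the strain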; details: S. cerevisiae deletion strains, growth OD, locus YJL168C, strain set2, hits give low values
Out of some 5,500 compounds screened, about 2,000 (36%) were called active. About 18% were inconclusive and are not listed. The list shows a part of the results.
Here, each record is paired with measured normalized growth data.
Answer using only a numeral; do not append any unit.

CC1(C)C2(Cl)C(Cl)C(Cl)C(Cl)(C(Cl)Cl)C1(Cl)C2Cl (stereo not given); 0.978

Kindly note the recorded normalized growth for CCC(C)(C)C(=O)O[C@H]1C[C@@H](C)C=C2C=C[C@H](C)[C@H](CC[C@@H]3C[C@@H](O)CC(=O)O3)[C@H]21 , which is 1.02

Per the records, this compound ( OCc1ccccc1O ) has normalized growth equal to 0.99

The compound listed as CCCCOC(=O)c1ccc(N)cc1 has a reported normalized growth of 0.953

Per the records, this compound ( COC(=O)[C@@H]1OC(=O)[C@H]2O[C@@]23[C@@]1(C)CCC1[C@@]2(C)CCC(=O)C(C)(C)C2C[C@@H](OC(C)=O)[C@]13C (stereo not given in full) ) has normalized growth equal to 1.01

According to the records, this compound CC(C)(C)CC(C)(C)c1ccc(O)c(Cc2ccc(Cl)cc2Cl)c1 displays normalized growth of 1.01

For record COc1cc(-c2coc3cc(OCc4ccccc4)c(OC)c(O)c3c2=O)cc(OCc2ccccc2)c1OC the listed normalized growth is 0.977

// normalized growth lookup, compound = Clc1cccc(Cl)c1NC1=NCCN1 , result: 1.02

Lab book: normalized growth of CO[C@@]1(NC(=O)CSCC#N)C(=O)N2C(C(=O)O)=C(CSc3nnnn3C)CSC21 (stereo not given in full) noted as 1.04

The measured normalized growth associated with CC1OC1P(=O)(O)O (stereo not given) reads 0.989

What the record says about CC1(C)O[C@@H]2CC3C4CCC5=CC(=O)CCC5(C)C4(F)C(O)CC3(C)[C@]2(C(=O)CCl)O1 (stereo not given in full) : normalized growth is 1

// sample Oc1ccc(Cl)cc1Cc1cc(Cl)ccc1O , its normalized growth was 0.0792

# compound CC[C@H](C)C(=O)O[C@H]1C[C@@H](C)C=C2C=C[C@H](C)[C@H](CC[C@@H]3C[C@@H](O)CC(=O)O3)[C@H]21 ; its normalized growth = 0.996

Entry under test: CCCCNc1ccc(C(=O)OCCN(C)C)cc1 . Its normalized growth was 1.02

# compound OC(Cn1cncn1)(Cn1cncn1)c1ccc(F)cc1F ; its normalized growth = 0.992
